# Tested on: EKVX NSCLC
# Experiment description: NCI-60 one-dose screen, 48 h
# Test settings: 10 µM unless noted
This is part of a sample that, as a whole, favours compounds with a hit. Of some 83,000 tested, about 20% had one in any assay. The source made the active and inactive calls. Rule for the calls: active = growth percent below 10; inactive = the rest.
Choose one outcome from this list and give only that: True = active, False = inactive

IN: Per the assay record, what outcome was assigned to CCN(CC)CCCNC(=O)c1ccc(N)cc1O ?
OUT: False

IN: Per the assay record, what outcome was assigned to N#C/C(=C\c1ccc(Br)cc1)n1nnc2cc(Cl)c(Cl)cc21 ?
OUT: False

IN: Per the assay record, what outcome was assigned to Cc1cc(N(CCCNc2ccnc3cc(Cl)ccc23)Cc2ccccn2)nc(N2CCOCC2)n1 ?
OUT: False

IN: Per the assay record, what outcome was assigned to Clc1ccc2c(NCCCN3CCN(c4nc(N5CCOCC5)nc5ccccc45)CC3)ccnc2c1 ?
OUT: False

IN: Per the assay record, what outcome was assigned to COc1ccc(/C=C2\COc3ccc(O)cc3C2=O)c(OC)c1 ?
OUT: False

IN: Per the assay record, what outcome was assigned to CCCCOC(=O)c1ccc(NC(=O)C(C)N2CCOCC2)cc1 (stereo not given) ?
OUT: False

IN: Per the assay record, what outcome was assigned to O=C(NCCN1CCC(O)CC1)c1cc2c(o1)C(=O)c1ccccc1C2=O ?
OUT: True

IN: Per the assay record, what outcome was assigned to CN1CCN(C(=O)[C@@]2(C)CC[C@]3(C)CC[C@]4(C)C(=CC[C@@H]5[C@@]6(C)C/C(=C/c7ccncc7)C(=O)C(C)(C)[C@@H]6CC[C@]54C)[C@@H]3C2)CC1 ?
OUT: False

IN: Per the assay record, what outcome was assigned to Clc1ccc(-c2nnc(-c3ccco3)o2)cc1 ?
OUT: False

IN: Per the assay record, what outcome was assigned to COc1ccc(/C(C)=C(\c2ccc(Cl)cc2)c2ccc(OCCCN(C)C)cc2)cc1F ?
OUT: False

====

# Test system: IGROV1 ovarian
# Experiment description: NCI-60 one-dose screen, 48 h (100 = growth as untreated, 0 = no growth, -100 = all killed)
# Test settings: 10 µM unless noted
The panel holds about 83,000 compounds, 20% with a hit somewhere; the sample as a whole holds those more often.
Please respond with reported growth for every item in the list.
Numeric only. Scale: %

IN: Fill in: growth of C=C(C)[C@@H]1CC[C@]2(CN)CC[C@]3(C)[C@H](CC[C@@H]4[C@@]5(C)CCC(N)[C@@](C)(CO)[C@@H]5CC[C@]43C)[C@@H]12 (some centres undefined) is ___
OUT: 67

IN: Fill in: growth of CN(CCC(=O)/C(=C\c1ccccc1)c1ccc(Cl)cc1)Cc1ccccc1 is ___
OUT: 14.4

IN: Fill in: growth of Cn1nnnc1-c1ccc(N)cc1 is ___
OUT: 99.2

IN: Fill in: growth of COc1cc(-c2ccc(N=Nc3c(O)c(C(=O)Nc4ccccc4OC)cc4ccccc34)c(OC)c2)ccc1N=Nc1c(O)c(C(=O)Nc2ccccc2OC)cc2ccccc12 is ___
OUT: 88.3

====

# Tested on: UACC-257 melanoma
# Experiment description: NCI-60 one-dose screen, 48 h (100 = growth as untreated, 0 = no growth, -100 = all killed)
# Test settings: 10 µM unless noted
About 83,000 compounds went through this panel and 20% of them were active in at least one assay; those are over-represented in the sample as a whole.
Please respond with reported growth for every item in the list.
Numeric only. Scale: %

IN: Fill in: growth of COc1ccc(Oc2nc(Nc3ccc(N4CCOCC4)nc3)ncc2NC(=O)c2cc(OC)cc(OC)c2)cc1 is ___
OUT: 89.7

IN: Fill in: growth of CS(=O)(=O)c1ccc(N/N=C/c2c(-c3ccc(S(C)(=O)=O)cc3)[nH]c3ccc(F)cc23)cc1 is ___
OUT: 14.1

IN: Fill in: growth of COc1cc(/C=C/C(=O)c2cccc(-n3cc(-c4ccccc4)[nH]c3=O)c2)cc(OC)c1OC is ___
OUT: -13.2

IN: Fill in: growth of C=CCN1C(=O)[C@]2(SC1=S)[C@H](c1cccc(Cl)c1)CN(C)[C@]21C(=O)NC2C=CC(Cl)=C[C@H]21 (some centres undefined) is ___
OUT: 26.5
